# Experiment Summary: APR_HepG2_MicrotubuleCSK_72hr: Apredica 72-hour HepG2 Assay for Microtubule CSK Stabilty (AID 2282919)
# Experimental Parameters: HepG2 microtubule cytoskeleton, high-content imaging, actives raise or lower the signal
# Protocol: APR_HepG2_72hr is a cell-based, multiplexed-readout assay that uses HepG2, a human liver cell line, with measurements taken at 72 hours after chemical dosing in a 384-well plate.APR_HepG2_MicrotubuleCSK_72hr is one of 10 assay component(s) measured or calculated from the APR_HepG2_72hr assay. […] This assay endpoint, APR_HepG2_MicrotubuleCSK_72hr, was analyzed with bidirectional fitting relative to DMSO as the negative control and baseline of activity. […]
Calls of active or inactive are those of the source. The calls were made as follows: active = hit-call score of the fitted dose curve at least 0.9, where 1 is the maximum; inactive = score below 0.9.
Recorded Metric: AC50

Known results for molecules:
In [3]: df
Out[3]:
                                   molecule  recorded_metric     value
0  N#CC(CCc1ccc(Cl)cc1)(Cn1cncn1)c1ccccc1 (stereo not given)             AC50  inactive
1  C=CC1(C)OC(=O)N(c2cc(Cl)cc(Cl)c2)C1=O (stereo not given)             AC50  inactive
2  C=CCC1=C(C)C(OC(=O)C2C(C=C(C)C)C2(C)C)CC1=O (stereo not given)             AC50  inactive
3  CCOC(=O)C(Cl)Cc1cc(-n2nc(C)n(C(F)F)c2=O)c(F)cc1Cl (stereo not given)             AC50  inactive
4  CC(C)C1(C)N=C(c2nc3ccccc3cc2C(=O)O)NC1=O (stereo not given)             AC50  inactive

Q. Can you share its AC50? I mean this molecule: "N#Cc1cc(Br)c(O)c(Br)c1"
A. inactive

Q. Can you share its AC50? I mean this molecule: C#CCOS(=O)OC1CCCCC1Oc1ccc(C(C)(C)C)cc1 (stereo not given)
A. 2.25 µM (active)

Q. Can you share its AC50? I mean this molecule: "CCCCNC(=O)n1c(NC(=O)OC)nc2ccccc21"
A. inactive

Q. Can you share its AC50? I mean this molecule: OC(c1ccc(Cl)cc1)(c1cncnc1)c1ccccc1Cl (stereo not given)
A. 167 µM (active)

Q. Can you share its AC50? I mean this molecule: CC1COC(Cn2cncn2)(c2ccc(Oc3ccc(Cl)cc3)cc2Cl)O1 (stereo not given)
A. 32.6 µM (active)

Q. Can you share its AC50? I mean this molecule: "COc1cnc(OC)n2nc(NS(=O)(=O)c3c(OCC(F)F)cccc3C(F)(F)F)nc12"
A. inactive

Q. Can you share its AC50? I mean this molecule: COC(=O)C(C)Oc1ccc(Oc2ccc(Cl)cc2Cl)cc1 (stereo not given)
A. inactive

Q. Can you share its AC50? I mean this molecule: "CO/C=C(/C(=O)OC)c1ccccc1Oc1cc(Oc2ccccc2C#N)ncn1"
A. inactive

Q. Can you share its AC50? I mean this molecule: CCCC1COC(Cn2cncn2)(c2ccc(Cl)cc2Cl)O1 (stereo not given)
A. 77.7 µM (active)

Q. Can you share its AC50? I mean this molecule: "CNC(=O)ON=CC(C)(C)SC"
A. inactive
